# ASSAY PROCEDURE: Plasma pharmacokinetics of betahistine and 2-PAA after oral dosing in UVN cats (LC-MS/MS, non-compartmental analysis)
# Type: in vivo, cat
# RUN PARAMETERS: male, plasma, po, 2 mg/kg, UVN cats, oral betahistine 2 mg/kg alone, day 21; read-out: Betahistine AUC
MEASUREMENT TYPE: AUC (ng·h/mL)
Answer format: numeric, ng·h/mL implied, no suffix.

Q: Requested read-out: AUC. Entry: CNCCc1ccccn1
Ans: 51

* * *

# ASSAY PROCEDURE: Plasma pharmacokinetics of betahistine and 2-PAA after oral dosing in UVN cats (LC-MS/MS, non-compartmental analysis)
# Format: in vivo, cat
# RUN PARAMETERS: male, plasma, po, 2 mg/kg, PK/PD table, DAY 2, BH 2.0 mg/kg; read-out: Cmax (betahistine)
MEASUREMENT TYPE: Cmax (ng/mL)
Answer format: numeric, ng/mL implied, no suffix.

Q: Requested read-out: Cmax. Entry: CNCCc1ccccn1
Ans: 54

* * *

# ASSAY PROCEDURE: Plasma pharmacokinetics of betahistine and 2-PAA after oral dosing in UVN cats (LC-MS/MS, non-compartmental analysis)
# Assay type: in vivo, cat
# RUN PARAMETERS: male, plasma, po, 2 mg/kg, UVN cats, oral betahistine 2 mg/kg alone, day 21; read-out: Betahistine t1/2 (converted)
MEASUREMENT TYPE: half-life (h)
Answer format: numeric, h implied, no suffix.

Q: Requested read-out: half-life. Entry: CNCCc1ccccn1
Ans: 1.6

* * *

# ASSAY PROCEDURE: Plasma pharmacokinetics of betahistine and 2-PAA after oral dosing in UVN cats (LC-MS/MS, non-compartmental analysis)
# Format: in vivo, cat
# RUN PARAMETERS: male, plasma, po, 2 mg/kg, UVN cats, oral betahistine 2 mg/kg alone, day 1; read-out: Betahistine t1/2 (converted)
MEASUREMENT TYPE: half-life

Q: Requested read-out: half-life. Entry: CNCCc1ccccn1
Ans: 3 h

* * *

# ASSAY PROCEDURE: Plasma pharmacokinetics of betahistine and 2-PAA after oral dosing in UVN cats (LC-MS/MS, non-compartmental analysis)
# Type: in vivo, cat
# RUN PARAMETERS: male, plasma, po, 0.2 mg/kg, UVN cats, oral betahistine 0.2 mg/kg alone, day 21; read-out: Betahistine AUC
MEASUREMENT TYPE: AUC (ng·h/mL)
Answer format: numeric, ng·h/mL implied, no suffix.

Q: Requested read-out: AUC. Entry: CNCCc1ccccn1
Ans: 1.5

* * *

# ASSAY PROCEDURE: Plasma pharmacokinetics of betahistine and 2-PAA after oral dosing in UVN cats (LC-MS/MS, non-compartmental analysis)
# Format: in vivo, cat
# RUN PARAMETERS: male, plasma, po, 2 mg/kg, UVN cats, oral betahistine 2 mg/kg alone, day 1
MEASUREMENT TYPE: Tmax (min)
Answer format: numeric, min implied, no suffix.

Q: Requested read-out: Tmax. Entry: CNCCc1ccccn1 [Betahistine, betahistine]
Ans: 15

* * *

# ASSAY PROCEDURE: Plasma pharmacokinetics of betahistine and 2-PAA after oral dosing in UVN cats (LC-MS/MS, non-compartmental analysis)
# Format: in vivo, cat
# RUN PARAMETERS: male, plasma, po, UVN cats, oral betahistine 0.2 mg/kg plus selegiline 1 mg/kg, day 21; read-out: Betahistine AUC
MEASUREMENT TYPE: AUC (ng·h/mL)
Answer format: numeric, ng·h/mL implied, no suffix.

Q: Requested read-out: AUC. Entry: CNCCc1ccccn1
Ans: 6.7
